As shown below, each of these binders has a reported log10(koff) value.
Molecular target: T1, recombinant human CD3 epsilon/delta heterodimer (human, UniProt P07766 23-126; P04234 22-105)
T1 construct: Recombinant protein in solution (200-50 nM) in the Octet assay; also called hCD3 E/D; human CD3E/D
T1 sequence (P07766 23-126, stated change not applied, chain 1 of 2): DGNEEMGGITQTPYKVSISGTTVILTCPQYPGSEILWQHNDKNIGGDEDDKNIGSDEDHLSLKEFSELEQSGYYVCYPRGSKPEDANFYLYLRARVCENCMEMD
T1 sequence (P04234 22-105, stated change not applied, chain 2 of 2): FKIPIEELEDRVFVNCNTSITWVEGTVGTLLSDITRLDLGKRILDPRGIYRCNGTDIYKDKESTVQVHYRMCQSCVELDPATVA
Assay: Octet BLI, mAb on FAB2G sensor, hCD3 E/D 200-50 nM; R^2 0.99
Annotation: log10 of koff, s⁻¹ basis.

Please review the entries below; each comes with its answer.
ABL-CD3-5 (antibody, V domains shown, Chimeric hybridoma mAb: human V, CH1, upper hinge; mouse middle hinge, CH2, CH3) VH: EVQLVESGGGLVQPGGSLRLSCAASGFTFSRYSMNWVRQAPGKGLEWVSYISSSSSSIYYADSVKGRFTISRDNAKNSLYLQMNSLRDEDTAVYYCARDRRATLDYWGQGTLVTVSS VL: NFMLTQPHSVSESPGKTVTISCTRSSGSIASNYVQWYQQRPGSSPTTVIYEDNQRPSGVPDRFSGSIDSSSNSASLTISGLKTEDEADYYCQSYDSSNHVFGGGTKLTVL | -1.49
ABL-CD3-56 (antibody, V domains shown, Chimeric hybridoma mAb: human V, CH1, upper hinge; mouse middle hinge, CH2, CH3) VH: EVQLVESGGGLVKPGGSLRLSCVASGFTFSRYSMNWVRQAPGKGLEWVSSISSSSRYTYYADSLKGRFIMSRDNAKNSLFLQMNSLRAEDTAVYYCARNLYNALDYWGQGTLVTVSS VL: FMLTQPHSVSESPGKTVTISCTRSSGSIASNYVQWYQQRPGSSPTTVIYEDNQRPSGVPDRFSGSIDSSSNSASLTISGLQTEDEADYYCQSYDSSNRVFGGGTKLTVL | -3.28
ABL-CD3-20 (antibody, V domains shown, Chimeric hybridoma mAb: human V, CH1, upper hinge; mouse middle hinge, CH2, CH3) VH: EVQLVESGGGLVKPGGSLRLSCAASGLTFSTYSMNWVRQAPGKGLEWVSSISSSGSYVYYADSVKGRFTMSRDNAKNSLYLQMNSLRAEDTAVYYCARERRELLFDYWGQGTLVTVSS VL: NFMLTQPHSVSESPGKTVTISCTRSSGSIASNYVQWYQQRPGSSPTSVIYEDNQRPSGVPDRFSGSIDSSSNSASLTISGLKTEDEADYYCQSYDRSNRVFGGGTKLTVL | -2.64
ABL-CD3-48 (antibody, V domains shown, Chimeric hybridoma mAb: human V, CH1, upper hinge; mouse middle hinge, CH2, CH3) VH: EVQLVESGGGLVKPGGSLRLSCAASGFTFSSYTMNWVRQAPGKGLEWVSSISGSGSYIYYADSVKGRFTISRDNAKNSLYLQMNSLRAEDTAVYYCAREPPTLGMDYWGQGTLVTVSS VL: NFMLTQPHSVSESPGKTVTISCTRSSGSIASNYVQWYQQRPGSSPTTVIYEDNQRPSGVPDRFSGSIDSSSNSASLTISGLKTEDEADYYCQSFDSSNRVFGGGTKLTVL | -2.94
ABL-CD3-28 (antibody, V domains shown, Chimeric hybridoma mAb: human V, CH1, upper hinge; mouse middle hinge, CH2, CH3) VH: QVQLQQSGPGLVKPSQTLSLTCAISGDSVSSNSVAWNWIRQSPSRGLEWLGRTYYRSKWYNECAGSVKSRITINPDTSKNQFSLQLNSVTPEDTAIYYCARERKWELFLDYWGQGTLVTVSS VL: NFMLTQPHSVSESPGKTVTISCTRSSGSIASNYVQWYQQRPGSSPTTVIYEDNQRPSGVPDRFSGSIDSSSNSASLTISGLKTEDEADYYCQSFDSSNVVFGGGTKLTVL | -2.88

Kindly review the next binder as well.
Fill in: log10(koff) of ABL-CD3-43 (antibody, V domains shown, Chimeric hybridoma mAb: human V, CH1, upper hinge; mouse middle hinge, CH2, CH3) VH: EVQLVQSGAEVKKPGESLKISCKGSEYSFTTYWIAWVRQMPGKGLEWMGIIYPGDSDTTYSPSFQGQVTISADKSISIAFLQWSSLKASDTAMYYCARQGELDAFDIWGQGTMVTVSS VL: QSALTQPASVSGSPGQSITISCTGTSSDVGSYNLVSWYQQHPGKAPKLMIYEDIRRPSGVSNRFSASKSGDTASLTISGLQAEDEADYYCCSYAGSTTFAIFGGGTKLTVL is ___
-3.12

This collection of values is drawn from patent US20260167721A1.
